Source of measurements: patent US6610877B1

outcome measure: melting point

Supply recorded melting point for CCC#CCOc1cc2c(cc1/C=C/C=C/C(C)=C/C(=O)O)C(C)(C)CCC2(C)C here.
208 to 209 °C

---

Reported melting point values follow for various compounds

Some solved entries appear below for comparison.
Supply recorded melting point for CCCCCCC1C2=C(CC1/C=C/c1ccc(C(=O)O)cc1)C(C)(C)CC=C2 (centres unmarked) [Example 13 (second compound)] here.
149 to 150 °C

Supply recorded melting point for CCC#CCOc1cc2c(cc1/C=C/c1ccc(C(=O)O)cc1)C(C)(C)CCC2(C)C here.
144 to 145 °C

Supply recorded melting point for CCCCCCCCc1cc2c(cc1/C=C/c1ccc(C(=O)O)cc1)CCC(C)(C)CC2C (racemic) here.
182 to 183 °C

Supply recorded melting point for C=CCOc1cc2c(cc1/C=C/c1ccc(C(=O)O)cc1)C(C)(C)CCC2(C)C here.
191 to 192 °C

Supply recorded melting point for CCCCCc1cc2c(cc1/C=C/C=C/C(C)=C/C(=O)O)C(C)(C)CCC2(C)C here.
164 to 166 °C

New cases:
Supply recorded melting point for CCCCCc1cc2c(cc1/C=C/C=C/C(C)=C\C(=O)O)C(C)(C)CCC2(C)C here.
170 to 174 °C

Supply recorded melting point for CCCCCOc1cc2c(cc1/C=C/C=C/C(C)=C/C(=O)O)C(C)(C)CCC2(C)C [Example 10 (2E isomer)] here.
162 to 163 °C

Supply recorded melting point for CCCCCCc1cc2c(cc1/C=C/c1ccc(C(=O)O)cc1)CCCCC2(C)C here.
133 to 134 °C
